tested on: NCI/ADR-RES; assay: NCI tumour cell line growth inhibition, 48 h
The source made the active and inactive calls. Cut-off read from the data, not from the text of the source: active = GI50 up to about 1.1 µM and inactive = higher.
A correct response names exactly one class from 1.0 for active, 0.0 for inactive

Oc1ccc(/C=N/c2nccs2)c(O)c1: 0.0
C/C1=C\[C@H](C)C[C@H](C)OC(=O)C[C@H](c2ccc(O)cc2)NC(=O)[C@H](Cc2ccc(O)c(Br)c2)N(C)C(=O)[C@H](C)NC(=O)[C@@H](C)C1: 0.0
C[C@]12CC[C@H](O)C[C@@H]1CC[C@@H]1[C@@H]2CC[C@]2(C)[C@@H](c3cc(C(F)(F)F)[nH]n3)CC[C@@H]12: 0.0
Nc1ccc(CCSSCCc2ccc(N)cc2)cc1: 0.0
Cc1ccc(S(=O)(=O)c2scc(-c3ccccc3)c2C)cc1: 0.0
CCC/N=C(/NC(=O)c1ccc(Cl)cc1)SC: 0.0

# input For CC[C@]1(O)C[C@H]2CN(CCc3c([nH]c4ccccc34)[C@@](C(=O)OC)(c3cc4c(cc3OC)N(C)[C@H]3[C@@](O)(C(=O)OC)[C@H](OC(C)=O)[C@]5(CC)C=CCN6CC[C@]43[C@@H]65)C2)C1 , which call appears in the assay record?
# output 1.0

# input For CC12CC(OC(=O)[C@]1(C)O)[C@@H]([C@]1(O)CC[C@H]3[C@@H]4C[C@H]5O[C@]56[C@@H](O)C=CC(=O)[C@]6(C)[C@H]4CC[C@@]31C)C2 (some centres not stated) , which call appears in the assay record?
# output 0.0

# input For Cc1ccsc1/C=N/NC1=NCCN1 , which call appears in the assay record?
# output 0.0

# input For O=C(N/N=C\c1cccc2ccccc12)Nc1ccccc1 , which call appears in the assay record?
# output 0.0

# input For Cc1ccc(S(=O)ON2CCC(C(=O)O)(c3ccccc3)CC2)cc1 (configuration not stated) , which call appears in the assay record?
# output 0.0

# input For CC(C)(NO)/C(=N\O)c1ccccc1 , which call appears in the assay record?
# output 0.0

# input For c1ccc2cc(NCNc3ccc4ccccc4c3)ccc2c1 , which call appears in the assay record?
# output 0.0

# input For O=C1C(=C(C(F)(F)Cl)C(F)(F)Cl)C2CCC1C2 (configuration not stated) , which call appears in the assay record?
# output 0.0

# input For CCCOC1OC(CS(=O)(=O)O)C(OC(C)=O)C(OC(C)=O)C1OC(C)=O (configuration not stated) , which call appears in the assay record?
# output 0.0

# input For COc1cc(OC)cc(Oc2nc3ccccc3nc2C(F)(F)F)c1 , which call appears in the assay record?
# output 0.0

# input For CN(C)CCNc1nc2c(no[n+]2[O-])c2ccccc12.[O-][Cl+3]([O-])([O-])O , which call appears in the assay record?
# output 0.0

* * *

tested on: SF-268; assay: NCI tumour cell line growth inhibition, 48 h
Calls of active or inactive are those of the source. Rule as the data show it: active = GI50 up to about 1.1 µM and inactive = higher.
A correct response names exactly one class from YES = active, NO = inactive

Worked examples follow.
COCN1COCN/C1=N\C#N: NO
Cc1ccc2c(c1)CC1(C2=O)[C@H](c2ccccc2)C2C(=O)c3ccc(C)cc3C2[C@H]1c1ccccc1 (some centres undefined): NO
CCN(CC(=O)O)CC(=O)O: NO
CC(=O)c1ccc2c3c1[C@@H]1O[C@@H]1c1cccc(c1-3)[C@@H]1O[C@H]21: NO
Cc1c2ccccc2c(CSC(=N)N)c2ccccc12: YES

# input For CC1CC[C@@]2(OC1)OC1C[C@H]3[C@@H]4CC=C5CC(OC6OC(CO)C(OC7OC(CO)C(O)C(OC8OCC(O)C(O)C8O)C7OC7OC(CO)C(OC8OC(C)C(OC9OC(C)C(O)C(O)C9O)C(O)C8O)C(O)C7O)C(O)C6O)CCC5(C)[C@H]4CCC3(C)C1[C@@H]2C (some centres undefined) , which call appears in the assay record?
# output NO

# input For O=C(Cc1nc2ccc(C(=O)c3ccccc3)cc2nc1O)C(=O)Nc1ccc(C(F)(F)F)cc1[N+](=O)[O-] , which call appears in the assay record?
# output NO

# input For CC(C(=O)c1ccc(O)cc1)C1(O)C(=O)Nc2c(Cl)cc(Cl)cc21 (centres undefined) , which call appears in the assay record?
# output NO

* * *

system: UO-31; test: NCI tumour cell line growth inhibition, 48 h
Active and inactive are the calls of the source. No stated cut-off is given here; in the data, active = GI50 up to about 1.1 µM and inactive = higher.
reported.property: GI50

Illustrative cases are given below, each with its answer.
Clc1ccc2c(c1)[nH]c1c2nc2ccccn21: 19.5 µM (inactive)
NC1=NS(=O)(=O)Nc2nc(-c3ccccc3)c(-c3ccccc3)nc21: > 100 µM (inactive)

# input Any idea what its GI50 is? The compound is ClC(Cl)(Cl)C(N1CCN(c2ccccc2)CC1)N1CCN(c2ccccc2)CC1
# output > 100 µM (inactive)

# input Any idea what its GI50 is? The compound is Cc1ccc2nc(CN3CCCCC3)cc(=O)n2c1
# output > 100 µM (inactive)

# input Any idea what its GI50 is? The compound is O=C(OCC(OC(=O)c1ccccc1)C(OC(=O)c1ccccc1)C(OC(=O)c1ccccc1)c1cnn(-c2ccccc2)n1)c1ccccc1 (stereo unspecified)
# output > 100 µM (inactive)

# input Any idea what its GI50 is? The compound is Cc1ccsc1/C=N/Nc1ccccn1
# output 71.3 µM (inactive)

# input Any idea what its GI50 is? The compound is CN1N=C(c2ccncc2)OC1c1cccc(C(F)(F)F)c1 (stereo unspecified)
# output > 100 µM (inactive)

# input Any idea what its GI50 is? The compound is COc1cc(CNc2cnc3cc(N)ccc3n2)cc(OC)c1OC
# output 36.8 µM (inactive)

# input Any idea what its GI50 is? The compound is CC(=O)OC1C/C(C)=C/[C@H](O)CC(C)/C=C/[C@@]2(C)CCC(C(C)(C)O)C12 (stereo partly specified)
# output > 100 µM (inactive)

# input Any idea what its GI50 is? The compound is CCCOC1OC(CS(=O)(=O)O)C(OC(C)=O)C(OC(C)=O)C1OC(C)=O (stereo unspecified)
# output > 100 µM (inactive)

# input Any idea what its GI50 is? The compound is NCCC(=O)NC(Cc1c[nH]cn1)C(=O)O (stereo unspecified)
# output > 100 µM (inactive)

* * *

Below: a set of entries, each annotated with reported GI50.
test system: RXF 393; experiment: NCI tumour cell line growth inhibition, 48 h
The source made the active and inactive calls. Cut-off read from the data, not from the text of the source: active = GI50 up to about 1.1 µM and inactive = higher.

CCOC(=O)C=C1CCC2(CC1)OCCO2: > 100 µM (inactive)

# input Given the entry CCCCCCc1ccc(O)cc1O , what GI50 was observed with RXF 393?
# output > 75.2 µM (inactive)

# input Given the entry COC1(OC)CC2C(=O)N(Cc3ccccc3)C1C(S(=O)(=O)c1ccccc1)C2C(C)S(=O)(=O)c1ccccc1 (stereo not drawn) , what GI50 was observed with RXF 393?
# output > 100 µM (inactive)

* * *

test system: U-251; test: NCI tumour cell line growth inhibition, 48 h
Calls of active or inactive are those of the source. Cut-off read from the data, not from the text of the source: active = GI50 up to about 1.1 µM and inactive = higher.
reported.property: GI50

CC(C)CC1C(=O)OC(C)(C)OC1=O: > 100 µM (inactive)
Cc1ncc(CO)c(/C=N/CCCCCC/N=C/c2c(CO)cnc(C)c2[O-])c1[O-].[Mg+2]: > 100 µM (inactive)
Cn1c(N)[n+](C(=O)OCc2ccccc2)c(=O)c2c1ncn2C(=O)OCc1ccccc1: 9.82 µM (inactive)
N#Cc1c2nc3ccccc3nc2n2ccccc12: > 100 µM (inactive)
O=C(O)CSc1ccc(N=C=S)cc1: 72.3 µM (inactive)
COc1ccc(-n2c(N)c(C#N)c(C#N)c2-c2ccccc2)cc1: 30.1 µM (inactive)
COc1ccc(C(=O)NCCC2CN(S(=O)(=O)C(F)(F)F)c3ccccc32)c(OC)c1 (stereo unspecified): 30.3 µM (inactive)
Cc1ccc(S(=O)(=O)NNC(C[N+](=O)[O-])c2ccccc2)cc1 (stereo unspecified): 14.5 µM (inactive)

# input Any idea what its GI50 is? The compound is COCn1cnc2c(=O)n(-c3ccc(OC)cc3)c(=S)n(-c3ccc(OC)cc3)c21
# output > 100 µM (inactive)

# input Any idea what its GI50 is? The compound is C=CCSc1nc2c(N)ncnc2n1C1OC(CO)C(O)C1O (stereo unspecified)
# output > 100 µM (inactive)

# input Any idea what its GI50 is? The compound is N#CC1(C2SCC[S+]2[O-])C2=C(C(=O)c3ccccc3C2=O)N2CCCC21 (stereo unspecified)
# output 3.4 µM (inactive)

# input Any idea what its GI50 is? The compound is COc1ccc2nc3c(C(=O)NCCN(C)C)cccc3nc2c1
# output 5 µM (inactive)

# input Any idea what its GI50 is? The compound is CC(=O)Oc1ccc2c(c1)CC[C@@H]1C2CC[C@]2(C)C(=O)NC(=O)CC12 (stereo partly specified)
# output > 100 µM (inactive)
